experiment.description: native HEK Tl+ uptake effects, second counter-screen – HEK cells, counterscreen 2, counter-screen for KCC2 modulator project, confirmation (AID 1718);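 further: run without ouabain in cells lacking the KCC2 cotransporter; slope of fluorescence scaled to its starting value between 10 and 20 s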
conditions.used: HEK293 parental, thallium flux FluoZin-2 fluorescence slope; at 10 µM
Some of the results follow. Inconclusive results are not listed. Calls of active or inactive are those of the source.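 How the source made its calls: active means thallium flux slope above the same plate's solvent-control mean plus 3 SD in both duplicate wells; inconclusive means duplicate wells that disagreed; inactive means the rest.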
endpoint.name: thallium flux slope

As a guide, the following entries are already answered.
CSc1sc(C(=O)NNC(=O)c2ccc(Cl)cc2)c2c1C=CCC2 ... 0.0136 (active)
O=C(CSc1ccc(-c2cccs2)nn1)Nc1ccccc1F ... 0.0107 (inactive)

Here is the next item to consider.
Request: Which thallium flux slope reading was recorded for the compound Cc1cccc(N(CC(O)CN(C)C)S(=O)(=O)c2ccccc2)c1 (configuration not stated) ?
Response: 0.0103 (inactive)

====

Listed next: entries and their corresponding slope.
study.system: Alpha-2C adrenergic receptor (Homo sapiens) (UniProt P18825)
Sequence (P18825 whole entry, looked up): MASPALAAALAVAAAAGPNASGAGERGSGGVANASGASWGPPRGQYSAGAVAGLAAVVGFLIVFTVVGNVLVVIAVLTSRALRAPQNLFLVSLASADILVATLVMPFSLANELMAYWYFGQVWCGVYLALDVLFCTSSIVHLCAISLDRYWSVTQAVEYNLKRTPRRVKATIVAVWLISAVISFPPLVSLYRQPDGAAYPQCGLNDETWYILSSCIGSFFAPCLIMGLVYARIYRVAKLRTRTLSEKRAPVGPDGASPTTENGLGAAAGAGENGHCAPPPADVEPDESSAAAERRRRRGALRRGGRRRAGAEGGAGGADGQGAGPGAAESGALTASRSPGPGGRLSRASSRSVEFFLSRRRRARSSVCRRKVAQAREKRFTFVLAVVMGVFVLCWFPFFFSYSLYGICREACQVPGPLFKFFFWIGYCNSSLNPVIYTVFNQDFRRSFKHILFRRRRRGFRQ
experiment.description: modulators of alpha2C/GIRK thallium flux, primary screen, cell-based, HEK293 alpha2C/GIRK1/2 (AID 624);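 further: slope of fluorescence ratio to pre-addition baseline per second over 15 to 24 s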
conditions.used: thallium flux BTC fluorescence, at 10 µM, actives lie on both sides
# print the numeric value only

As a guide, the following entries are already answered.
N#Cc1c(-c2ccco2)cc(C2CC2)nc1N ... 0.00359
c1ccc(OCc2nn3c(C4CCCCC4)nnc3s2)cc1 ... 0.00482
COCCNC(=O)c1c(N)n(CCC2=CCCCC2)c2nc3ccccc3nc12 ... 0.00496
Nc1ccc(Cl)cc1/C(=N/O)c1ccccc1 ... 0.00461
CCN(CC)CCN1C(=O)C(O)=C(C(=O)c2cccs2)C1c1ccccn1 (configuration not stated) ... 0.00594

Request: Fill in the recorded slope for this molecule, with Alpha-2C adrenergic receptor (Homo sapiens) (UniProt P18825) as test system: "COC(=O)CN(c1nc(C)c(Cl)c(OC)n1)S(=O)(=O)c1ccc(C)cc1"
Response: 0.00465

Request: Fill in the recorded slope for this molecule, with Alpha-2C adrenergic receptor (Homo sapiens) (UniProt P18825) as test system: "Cc1cc(C)n(S(=O)(=O)Cc2ccccc2)n1"
Response: 0.00447

Request: Fill in the recorded slope for this molecule, with Alpha-2C adrenergic receptor (Homo sapiens) (UniProt P18825) as test system: "COc1cccc2c1C(=O)c1c(O)c3c(c(O)c1C2=O)C[C@@](O)(C(=O)CO)C[C@@H]3O[C@H]1C[C@H](N)[C@H](O)[C@H](C)O1"
Response: 0.00828

Request: Fill in the recorded slope for this molecule, with Alpha-2C adrenergic receptor (Homo sapiens) (UniProt P18825) as test system: CC(=O)C1(C)OC(N)=C(C#N)C(c2ccccc2)C1(C#N)C#N (configuration not stated)
Response: 0.00393

Request: Fill in the recorded slope for this molecule, with Alpha-2C adrenergic receptor (Homo sapiens) (UniProt P18825) as test system: CCOC(=O)CSC1=C(C#N)C(c2ccc(OC)cc2)C2=C(CC(C)(C)CC2=O)N1 (configuration not stated)
Response: 0.00489

Request: Fill in the recorded slope for this molecule, with Alpha-2C adrenergic receptor (Homo sapiens) (UniProt P18825) as test system: "CC(=O)Nc1nnc(S(N)(=O)=O)s1"
Response: 0.0054

====

study.system: Voltage-gated potassium channel subunit beta-2 (Rattus norvegicus)
experiment.description: KvBeta enzyme negative modulators, primary screen, biochemical, NADPH fluorescence (AID 622);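 further: slope of raw intensity against log time taken from 70 to 1610 s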
conditions.used: recombinant KvBeta, 4-cyanobenzaldehyde reduction, at 10 µM, stronger effect = higher value
Listed next: entries and their corresponding fluorescence slope.
# print the numeric value only

As a guide, the following entries are already answered.
CC(C(=O)O)c1ccc(-c2ccccc2)c(F)c1 (stereo not drawn) ... -0.456
CN(C)C/C(Cl)=C(\Cl)c1ccccc1 ... -0.53

Here is the next item to consider.
Request: Which fluorescence slope reading was recorded for the molecule "CCCCNc1cc(C(=O)O)cc(S(N)(=O)=O)c1Oc1ccccc1" ?
Response: -0.47

====

experiment.description: inhibitors of TNFa-induced NFkB p65 translocation, primary screen, imaging, HUVEC, MLSMR starter and 10KST1 sets (AID 438);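 further: compound added about 3h40 before a 20 min TNFalpha stimulation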
conditions.used: HUVEC TNFa-induced p65 nuclear translocation; measured here: nuclei count (cytotoxicity indicator), at 2.08 µM
endpoint.name: cell count
# print the numeric value only

N#CC1=C2SCC(O)(c3ccccc3)N2C(=O)CC1c1ccccc1 (centres undefined) ... 487
COc1ccc(/C=C(/C#N)c2cccnc2)cc1OC ... 515
Cc1cc2c(c(=O)o1)C(Cc1ccccc1)C(C#N)=C(N)O2 (centres undefined) ... 706
Cc1cc(C(F)(F)F)c(C#N)c(SCC(=O)NC2CC2)n1 ... 541
Cc1c(OCC(F)(F)F)ccnc1CS(=O)c1nc2ccccc2[nH]1 (centres undefined) ... 654

Request: Which cell count reading was recorded for the molecule CC(NCCc1ccc(O)cc1)C(O)c1ccc(O)cc1 (centres undefined) ?
Response: 713

Request: Which cell count reading was recorded for the molecule "COc1cc(/C=N/O)ccc1OCc1ccc(C(=O)O)cc1" ?
Response: 587

Request: Which cell count reading was recorded for the molecule CCOC(=O)C1=C(C)N=C2SC(C)C(=O)N2C1c1ccc(OC(C)=O)c(OC)c1 (centres undefined) ?
Response: 364

Request: Which cell count reading was recorded for the molecule "Cc1ccccc1NC(=O)NCCc1nc2ccccc2[nH]1" ?
Response: 543

====

experiment.description: inhibitors of mutant huntingtin aggregation, primary screen, imaging, exon1htt(103Q)mCFP cells, high-content imaging (AID 483);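 further: compound exposure lasted 3 days before fixation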
conditions.used: exon1htt(103Q)mCFP cell line, aggregate imaging, at 2 µM
Calls of active or inactive are those of the source.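 Rule for the calls: active = visual image review flags a hit and inhibition of aggregation exceeds 20%; inconclusive = visual hit but inhibition at or below 20%; inactive = no hit on visual image review.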
Pick from active, inactive when you respond.

Worked examples follow.
Cn1c2c(c(=O)n(C)c1=O)C(NC(=O)C(C)(C)C)(C(F)(F)F)C(=O)N2 (configuration not stated) ... inactive
C[C@]12CC[C@@H]3c4ccc(O[C@@H]5O[C@H](C(=O)O)[C@@H](O)[C@H](O)[C@H]5O)cc4CC[C@H]3[C@@H]1C[C@@H](O)[C@@H]2O ... inactive

Request: Recorded test outcome, item COCCc1ccc(OCC(O)CNC(C)C)cc1 (configuration not stated)
Response: inactive

Request: Recorded test outcome, item "S=C(N=Nc1ccccc1)NNc1ccccc1"
Response: inactive

Request: Recorded test outcome, item CN(C)CC(O)COc1ccc(-c2ccc(C#N)cc2)cc1 (configuration not stated)
Response: inactive

Request: Recorded test outcome, item "Cc1c(NC(=O)c2ccc(=O)oc2)c(=O)n(-c2ccccc2)n1C"
Response: inactive

Request: Recorded test outcome, item O=S(=O)(c1ccc2ccccc2c1)N(CC(O)CN1CCOCC1)c1ccccc1 (configuration not stated)
Response: inactive

Request: Recorded test outcome, item "COc1ccc2c(c1)n([O-])c1c([n+]2=O)CCC1"
Response: inactive

Request: Recorded test outcome, item "CCN(CC)CCNC(=O)c1cc(Cl)c(N)cc1OC"
Response: inactive

Request: Recorded test outcome, item CN(C)c1ccc(O)c2c1CC1CC3[C@@H](N(C)C)C(=O)C(C(N)=O)=C(O)[C@]3(O)C(=O)C1=C2O (some centres not stated)
Response: active

Request: Recorded test outcome, item "COC(=O)Nc1nc2ccc(Sc3ccccc3)cc2[nH]1"
Response: inactive

Request: Recorded test outcome, item "CCc1cn([C@H]2C[C@H](O)[C@@H](CO)O2)c(=O)[nH]c1=O"
Response: inactive

Request: Recorded test outcome, item O=C(O)CCCCCCC1C(=O)NC(=O)N1CCC(O)C1CCCCC1 (configuration not stated)
Response: inactive

Request: Recorded test outcome, item "CCCCC(=O)O[C@]1(C(=O)CO)CC[C@H]2[C@@H]3CCC4=CC(=O)CC[C@]4(C)[C@H]3[C@@H](O)C[C@@]21C"
Response: inactive

Request: Recorded test outcome, item CN(CCO)CC(O)Cn1cnc2c1c(=O)n(C)c(=O)n2C (configuration not stated) (tested in a mixture with another compound)
Response: inactive

Request: Recorded test outcome, item "Cn1cnc2c1c(=O)[nH]c(=O)n2C"
Response: inactive

Request: Recorded test outcome, item "CCOC(=O)c1[nH]c2ccc(OC)cc2c1NC(=O)CCN1CCC(C)CC1"
Response: inactive

Request: Recorded test outcome, item "N#C/C(=C\c1ccc(O)c(O)c1)C(=O)NCCCc1ccccc1"
Response: inactive

Request: Recorded test outcome, item "Cc1nnc(NCc2n[nH]c(=O)c3ccccc23)c2ccccc12"
Response: inactive

Request: Recorded test outcome, item "CCC(=O)c1ccc(O)cc1"
Response: inactive

Request: Recorded test outcome, item "CC(=Nc1ccc(C)c(C)c1)C1=C(O)CCC1=O"
Response: inactive

Request: Recorded test outcome, item Cc1cc(N2C(=O)C(=O)/C(=C(/O)c3ccc(F)cc3)C2c2ccc(F)cc2)no1 (configuration not stated)
Response: inactive

Request: Recorded test outcome, item CCN(CC)CCCN1C(=O)C(=O)/C(=C(/O)c2ccccc2)C1c1ccccn1 (configuration not stated)
Response: inactive

Request: Recorded test outcome, item "CCOC(=O)N1CCN(C(=O)c2cn(CC)c3cc(N4CCN(C)CC4)c(F)cc3c2=O)CC1"
Response: inactive

Request: Recorded test outcome, item "C1CNCCNCCNCCN1"
Response: inactive

Request: Recorded test outcome, item COC1=CC(=O)CC(C)C12Oc1c(Cl)c(OC)cc(OC)c1C2=O (configuration not stated)
Response: inactive

Request: Recorded test outcome, item "CC[C@H](C)C(=O)O[C@H]1C[C@@H](C)C=C2C=C[C@H](C)[C@H](CC[C@@H]3C[C@@H](O)CC(=O)O3)[C@H]21"
Response: inactive

Sourced from PubChem BioAssay
